EXPERIMENTAL_TARGET: CYP1A2 (Homo sapiens, UniProt P05177)
Sequence (P05177 whole entry): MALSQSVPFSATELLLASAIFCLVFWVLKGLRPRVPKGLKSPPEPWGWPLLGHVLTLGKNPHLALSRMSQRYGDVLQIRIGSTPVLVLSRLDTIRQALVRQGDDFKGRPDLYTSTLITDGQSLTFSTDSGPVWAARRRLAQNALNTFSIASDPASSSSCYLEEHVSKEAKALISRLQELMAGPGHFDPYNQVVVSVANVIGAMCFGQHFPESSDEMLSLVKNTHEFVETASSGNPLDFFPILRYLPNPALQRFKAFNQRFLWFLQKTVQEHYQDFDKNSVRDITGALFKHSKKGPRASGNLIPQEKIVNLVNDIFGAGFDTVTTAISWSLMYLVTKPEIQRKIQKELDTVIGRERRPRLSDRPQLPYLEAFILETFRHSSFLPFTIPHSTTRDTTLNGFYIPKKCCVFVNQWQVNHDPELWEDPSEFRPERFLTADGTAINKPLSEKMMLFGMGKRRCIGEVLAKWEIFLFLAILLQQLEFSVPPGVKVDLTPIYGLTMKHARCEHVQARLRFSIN
TEST_PROTOCOL: Vivid CYP1A2 blue screening kit inhibition assay
CONDITION_CONTEXT: human, recombinant human CYP1A2 (CYP450 BACULOSOMES reagent), probe Vivid EOMCC, CYP1A2 In Vitro IC50, CYP1A2 BACULOSOMES, substrate Vivid EOMCC, 3.125–200 μM; n.i. = no inhibition

MOL: CC(=O)O[C@H]1CC(C)(C)C(=C=C/C(C)=C/C=C/C(C)=C/C=C/C=C(C)/C=C/C=C(\C)C(=O)C[C@@]23O[C@]2(C)C[C@@H](O)CC3(C)C)[C@](C)(O)C1
IC50 at 60 min / µM: 30.2
